# test.conditions: in vivo
Where no end group is shown, it is not given here.
Classify as follows. Reported CL greater than or equal to 0.5 mL/min/kg: Condition met. Reported CL below: Condition not met.

Reference set, count: 4
In [3]: df
Out[3]:
                                  substance     assigned_class
0  mPEG-SC10k-Arg-Gly-Ala-Asp-Arg-Ala-Gly-Gly-Gly-Gly-Arg-Gly-Asp ({mPEG‑SC 10 kDa}-RGADRAGGGGRGD) [mPEG-SC10k-HM-1]  Condition not met
1  mPEG-bALD5k-Arg-Gly-Ala-Asp-Arg-Ala-Gly-Gly-Gly-Gly-Arg-Gly-Asp ({mPEG‑bALD 5 kDa}-RGADRAGGGGRGD) [mPEG-bALD5k-HM-1]      Condition met
2  mPEG2-NHS40k-Arg-Gly-Ala-Asp-Arg-Ala-Gly-Gly-Gly-Gly-Arg-Gly-Asp ({mPEG2‑NHS 40 kDa}-RGADRAGGGGRGD) [mPEG2-NHS40k-HM-1]  Condition not met
3  mPEG-bALD20k-Arg-Gly-Ala-Asp-Arg-Ala-Gly-Gly-Gly-Gly-Arg-Gly-Asp ({mPEG‑bALD 20 kDa}-RGADRAGGGGRGD) [mPEG-bALD20k-HM-1]  Condition not met

Exam item: decide whether the reported CL for mPEG-SC5k-Arg-Gly-Ala-Asp-Arg-Ala-Gly-Gly-Gly-Gly-Arg-Gly-Asp ({mPEG‑SC 5 kDa}-RGADRAGGGGRGD) [mPEG-SC5k-HM-1] is at least 0.5 mL/min/kg. Condition met

The values you see were collected from patent US10869931B2.
